- System: Pharbitis purpurea (PHBPU)
- ASSAY OVERVIEW: E. Herbicidal post-emergence efficacy, PHBPU
- Type: in vivo
- EXPERIMENTAL CONDITIONS: application rate 320 g/ha
Post-emergence efficacy against PHBPU in % reference
QUANTITY: Post-emergence efficacy against PHBPU in % (%)

>>> print(df.to_string())
                                   compound                 target_desc  unit_of_measurement  experimental_value
0   O=S(=O)(CCCCl)Oc1c(F)cccc1Oc1ncc(Cl)cn1  Pharbitis purpurea (PHBPU)                    %                 100
1  O=S(=O)(CCC(F)(F)F)Oc1c(Cl)cccc1Oc1ncc(Cl)cn1  Pharbitis purpurea (PHBPU)                    %                 100
2  O=S(=O)(CCCC(F)(F)F)Oc1ccccc1Oc1ncc(Cl)cn1  Pharbitis purpurea (PHBPU)                    %                 100
3     CC(C)CS(=O)(=O)Oc1ccccc1Oc1ncc(Cl)cn1  Pharbitis purpurea (PHBPU)                    %                  90
4  N#Cc1cccc(Oc2ncc(Cl)cn2)c1OS(=O)(=O)CC1CC1(Cl)Cl (centres unmarked)  Pharbitis purpurea (PHBPU)                    %                 100

----------
- System: Veronica persica (VERPE)
- ASSAY OVERVIEW: C. Herbicidal pre-emergence efficacy, VERPE
- Format: in vivo
- EXPERIMENTAL CONDITIONS: 320 g/ha, scored after about 3 weeks
QUANTITY: Pre-emergence efficacy against VERPE (%)

                                    molecule                              quantity  experimental_value
 0  N#Cc1cccc(Oc2ncc(Cl)cn2)c1OS(=O)(=O)CCCC(F)(F)F [Example I-81]  Pre-emergence efficacy against VERPE                 100
 1  O=S(=O)(CCC(F)=C(F)F)Oc1c(Cl)cccc1Oc1ncc(Cl)cn1 [Example I-73]  Pre-emergence efficacy against VERPE                  80
 2  O=S(=O)(CCC(F)=C(F)F)Oc1c(F)cccc1Oc1ncc(Cl)cn1 [Example I-70]  Pre-emergence efficacy against VERPE                 100
 3  CCCS(=O)(=O)Oc1ccccc1Oc1ncc(Cl)cn1 [Example I-3]  Pre-emergence efficacy against VERPE                 100
 4  O=S(=O)(CCCCl)Oc1c(F)cccc1Oc1ncc(Cl)cn1 [Example I-14]  Pre-emergence efficacy against VERPE                 100
 5  O=S(=O)(CCCC(F)(F)C(F)(F)F)Oc1c(F)cccc1Oc1ncc(Cl)cn1 [Example I-68]  Pre-emergence efficacy against VERPE                  90
 6  O=S(=O)(CCl)Oc1ccccc1Oc1ncc(Cl)cn1 [Example I-9]  Pre-emergence efficacy against VERPE                 100
 7  O=S(=O)(CCCCl)Oc1ccccc1Oc1ncc(Cl)cn1 [Example I-2]  Pre-emergence efficacy against VERPE                 100
 8  O=S(=O)(CCCC(F)(F)F)Oc1c(F)cccc1Oc1ncc(F)cn1 [Example I-42]  Pre-emergence efficacy against VERPE                 100
 9  O=S(=O)(CCCC(F)(F)F)Oc1c(F)cccc1Oc1ncc(Br)cn1 [Example I-41]  Pre-emergence efficacy against VERPE                 100
10  O=S(=O)(CC1CC1)Oc1ccccc1Oc1ncc(Cl)cn1 [Example I-23]  Pre-emergence efficacy against VERPE                 100
11  Cc1cccc(Oc2ncc(Cl)cn2)c1OS(=O)(=O)CC=C(Cl)Cl [Example I-83]  Pre-emergence efficacy against VERPE                  90
12  O=S(=O)(CCC(F)(F)F)Oc1c(F)cccc1Oc1ncc(Br)cn1 [Example I-40]  Pre-emergence efficacy against VERPE                 100
13  O=S(=O)(CCCC(F)(F)F)Oc1ccccc1Oc1ncc(Cl)cn1 [Example I-10]  Pre-emergence efficacy against VERPE                 100
14  O=S(=O)(CCCCCl)Oc1ccccc1Oc1ncc(Cl)cn1 [Example I-15]  Pre-emergence efficacy against VERPE                  80
15  O=S(=O)(CCCC(F)(F)F)Oc1c(Cl)cccc1Oc1ncc(Br)cn1 [Example I-34]  Pre-emergence efficacy against VERPE                 100
16  CC(C)CS(=O)(=O)Oc1ccccc1Oc1ncc(Cl)cn1 [Example I-7]  Pre-emergence efficacy against VERPE                 100
17  O=S(=O)(CCC(F)(F)F)Oc1ccccc1Oc1ncc(Cl)cn1 [Example I-8]  Pre-emergence efficacy against VERPE                 100
18  O=S(=O)(CCC(F)(F)F)Oc1c(Cl)cccc1Oc1ncc(Br)cn1 [Example I-32]  Pre-emergence efficacy against VERPE                 100
19  O=S(=O)(CC1CC(F)(F)C1)Oc1c(F)cccc1Oc1ncc(Cl)cn1 [Example I-53]  Pre-emergence efficacy against VERPE                 100
20  O=S(=O)(CCCCl)Oc1cccc(F)c1Oc1ncc(Cl)cn1 [Example I-13]  Pre-emergence efficacy against VERPE                  90
21  CCCCCS(=O)(=O)Oc1ccccc1Oc1ncc(Cl)cn1 [Example I-24]  Pre-emergence efficacy against VERPE                  90
22  O=S(=O)(CCCCl)Oc1ccccc1Oc1ncc(F)cn1 [Example I-5]  Pre-emergence efficacy against VERPE                 100
23  CC(C)CCS(=O)(=O)Oc1ccccc1Oc1ncc(Cl)cn1 [Example I-25]  Pre-emergence efficacy against VERPE                 100
24  O=S(=O)(CCC1CC1)Oc1c(F)cccc1Oc1ncc(Cl)cn1 [Example I-55]  Pre-emergence efficacy against VERPE                 100
25  Cc1cccc(OS(=O)(=O)CCCCl)c1Oc1ncc(Cl)cn1 [Example I-12]  Pre-emergence efficacy against VERPE                  90
26  Cc1cccc(Oc2ncc(Cl)cn2)c1OS(=O)(=O)CC1CC(F)(F)C1 [Example I-74]  Pre-emergence efficacy against VERPE                 100
27  CCCCS(=O)(=O)Oc1ccccc1Oc1ncc(Cl)cn1 [Example I-6]  Pre-emergence efficacy against VERPE                  90
28  O=S(=O)(CCC(F)(F)F)Oc1c(Cl)cccc1Oc1ncc(Cl)cn1 [Example I-38]  Pre-emergence efficacy against VERPE                 100
29  O=S(=O)(CCCC(F)(F)F)Oc1c(Cl)cccc1Oc1ncc(Cl)cn1 [Example I-39]  Pre-emergence efficacy against VERPE                 100
30  Cc1cccc(Oc2ncc(Cl)cn2)c1OS(=O)(=O)CCCCl [Example I-11]  Pre-emergence efficacy against VERPE                 100
31  Cc1cccc(Oc2ncc(Cl)cn2)c1OS(=O)(=O)CCC(F)=C(F)F [Example I-71]  Pre-emergence efficacy against VERPE                  90
